Source: PubChem BioAssay (NCI)

test system: HL-60(TB) leukemia; experiment: NCI-60 one-dose screen, 48 h (100 = growth as untreated, 0 = no growth, -100 = all killed); settings: 10 µM unless noted
Compounds without any hit were thinned out: in the full panel of roughly 83,000, 20% have a hit. Active and inactive are the calls of the source. How the source made its calls: active means growth percent below 10; inactive means the rest.
MEASURE: growth

INSERT INTO measurements (molecule, assayed_system, measure, result) VALUES
  ('N#C/C(C(=O)c1ccccc1)=C1/C(=O)Nc2ccc(F)cc21', 'HL-60(TB) leukemia', 'growth', '130% (inactive)'),
  ('C=C1C(=O)O[C@H]2[C@H]1CC/C(COC(=O)/C=C\C(=O)NCc1ccc(Cn3c(=O)sn(CCCCl)c3=O)cc1)=C\CC[C@@]1(C)O[C@@H]21', 'HL-60(TB) leukemia', 'growth', '10.8% (inactive)'),
  ('Nc1c(C(=O)Nc2ccccc2)sc2nc3c(cc12)C(=O)CCC3', 'HL-60(TB) leukemia', 'growth', '19.4% (inactive)'),
  ('CCC(=C(c1ccc(OCCN(CC)CC)cc1)c1ccc(OCCN(CC)CC)cc1)c1ccc(Cl)cc1', 'HL-60(TB) leukemia', 'growth', '-51.6% (active)'),
  ('CCN1CCC(CCOC)(CN2c3ccccc3Sc3ccc(Cl)cc32)C1 (stereo not drawn)', 'HL-60(TB) leukemia', 'growth', '58.5% (inactive)'),
  ('Cn1c(=O)c2[nH]c(CC(=O)O)nc2n(C)c1=O', 'HL-60(TB) leukemia', 'growth', '110% (inactive)'),
  ('COc1cc(-c2cc(C(=O)N3CCN(C(=O)c4ccccc4NCc4ccco4)CC3)nc3cc(-c4ccccc4)nn23)cc(OC)c1OC', 'HL-60(TB) leukemia', 'growth', '11.6% (inactive)'),
  ('Cn1cc(-c2csc(-c3c[nH]c4ccccc34)n2)c2cnccc21', 'HL-60(TB) leukemia', 'growth', '-30.2% (active)'),
  ('CCCC[N+](C)(N)CCCC', 'HL-60(TB) leukemia', 'growth', '104% (inactive)'),
  ('ClCc1c(Cl)c(Cl)c(Cl)c(CCl)c1Cl', 'HL-60(TB) leukemia', 'growth', '80.4% (inactive)'),
  ('CCOC(=O)c1ccccc1NC(c1ccccc1)c1ccc2cccnc2c1O (stereo not drawn)', 'HL-60(TB) leukemia', 'growth', '3.54% (active)'),
  ('CC(=O)c1cc(Nc2cc(C)nc(N)n2)cc(C(C)=O)c1', 'HL-60(TB) leukemia', 'growth', '96.1% (inactive)'),
  ('COc1ccc(/C=C\c2cc(OC)c(OC)c(OC)c2)cc1OC(=O)c1cccc(Cn2cc(CCOC(=O)[C@H](N)Cc3cn(C)c4ccccc34)nn2)c1', 'HL-60(TB) leukemia', 'growth', '-42.7% (active)'),
  ('Cc1ccc(NC(=O)Cc2ccc(/C=C/C(=O)c3ncc[nH]3)cc2)cc1', 'HL-60(TB) leukemia', 'growth', '27.5% (inactive)'),
  ('COc1ccc(C(O)c2cc3c(N)c(C(=O)Nc4cccc(OC)c4)sc3nc2C)cc1 (stereo not drawn)', 'HL-60(TB) leukemia', 'growth', '-55.9% (active)'),
  ('Cc1ccccc1NC(=O)N/C(N)=N/c1nc2ccccc2s1', 'HL-60(TB) leukemia', 'growth', '-23.2% (active)'),
  ('O=C1CSC(c2ccccc2O)N1c1nnc(Cn2cnnc2)o1 (stereo not drawn)', 'HL-60(TB) leukemia', 'growth', '61.1% (inactive)'),
  ('O=C1c2ccccc2NC(n2sc3ccccc3c2=O)N1c1ccccc1 (stereo not drawn)', 'HL-60(TB) leukemia', 'growth', '87.9% (inactive)');
